Test system: compound 48/80-induced lethality
Assay: Protection of rats from compound 48/80-induced lethality
Format: in vivo, rats of an inbred Wistar strain
Settings: Rattus norvegicus, 4 h, read-out: Compound 48/80 lethality test in rats ED50, s.c. or p.o. 1 h before compound 48/80 0.5 mg/kg i.v.; protection of 50% of animals, survival after 4 hours
OBSERVATION TYPE: ED50 (mg/kg)
Respond numerically; units are mg/kg and should not be typed.

Give its ED50 value. Item: c1csc(Cn2c(CC3CCN(CCNc4nccs4)CC3)nc3cccnc32)c1 [Compound 361]
0.02

Given the molecule CC(C)N1CCC(Cc2nc3ccccc3n2Cc2ccc(F)cc2)CC1 [Compound 83] , what is its reported ED50?
0.01

GET /values?readout=ED50&item= c1ccc(Cn2c(CC3CCN(CCNc4nccs4)CC3)nc3ccccc32)cc1 [Compound 363]
0.04

Look up ED50: O=c1cc[nH]c(NCCN2CCC(Cc3nc4ccccc4n3Cc3ccc(F)cc3)CC2)n1 [Compound 331]
0.04

Fill in the blank: the reported ED50 of Cc1nc2n(c(=O)c1CCN1CCC(Cc3nc4ccccc4n3Cc3ccco3)CC1)CCS2 [Compound 163] is ____.
0.02

What value of ED50 has been reported for the following molecule? O=c1oc2ccccc2cc1CCN1CCC(Cc2nc3ccccc3n2Cc2ccco2)CC1 [Compound 165]
0.02

// ED50 lookup, key: Fc1ccc(Cn2c(CC3CCN(CCc4ccccn4)CC3)nc3ccccc32)cc1 [Compound 103]
0.005

Sample CCNC(=O)NCCN1CCC(Cc2nc3ccccc3n2Cc2ccc(F)cc2)CC1 [Compound 430] — what was its ED50?
0.01

Using the record for O=C(NCCN1CCC(Cc2nc3cccnc3n2Cc2ccc(F)cc2)CC1)c1ccoc1 [Compound 432] , report its ED50.
0.04

Which ED50 reading was recorded for the molecule c1ccc(Cn2c(CC3CCNCC3)nc3ccccc32)cc1 [Compound 40] ?
0.08

I would be grateful if you could share the reported ED50 for c1coc(Cn2c(CC3CCN(CCNc4nccs4)CC3)nc3ccccc32)c1 [Compound 335] .
0.02

Report ED50 for CNC(=S)NCCN1CCC(Cc2nc3ccccc3n2Cc2ccc(F)cc2)CC1 [Compound 428] please.
0.04

Which ED50 reading was recorded for the molecule Cn1c(O)nc2c(NCCN3CCC(Cc4nc5ccccc5n4Cc4ccc(F)cc4)CC3)ncnc21 [Compound 371] ?
0.16

Please report the recorded ED50 for Fc1ccc(Cn2c(OC3CCN(CCOc4ncccn4)CC3)nc3ccccc32)cc1 [Compound 390] .
0.04

Bench note: what ED50 did CCOC(=O)NCCN1CCC(Cc2nc3ccccc3n2Cc2cscn2)CC1 [Compound 248] show?
0.04

Entry Cc1nc2ccccn2c(=O)c1CCN1CCC(Cc2nc3ccccc3n2Cc2cscn2)CC1 [Compound 261] : reported ED50 = ?
0.08

Param item = O=c1oc2ccccc2cc1CCN1CCC(Cc2nc3ccccc3n2Cc2cccs2)CC1 [Compound 259] ; retrieve measured ED50.
0.08

Requested read-out: ED50. Entry: Fc1ccc(Cn2c(CC3CCN(CCNc4ncnc5[nH]cnc45)CC3)nc3ccccc32)cc1 [Compound 370]
0.02

Entry O=c1[nH]c2ccccc2n1CCCN1CCC(Oc2nc3ccccc3n2Cc2ccc(F)cc2)CC1 [Compound 140] : reported ED50 = ?
0.04

# query: ED50 of entry c1csc(Cn2c(CC3CCNCC3)nc3ccccc32)c1 [Compound 64]
0.04

Look up ED50: c1ccc(Cn2c(CC3CCN(CCNc4ncccn4)CC3)nc3cccnc32)nc1 [Compound 340]
0.08

Which value of ED50 has been reported for N#CCN1CCC(Cc2nc3ccccc3n2Cc2ccc(F)cc2)CC1 [Compound 283] in the records?
0.04

If you can, please state the reported ED50 value of Fc1ccc(Cn2c(CC3CCN(CCOc4ncccn4)CC3)nc3ccccc32)cc1 [Compound 391] .
0.02

Which measured ED50 value corresponds to Fc1ccc(Cn2c(CC3CCN(CCNc4ccncn4)CC3)nc3ccccc32)cc1 [Compound 501] ?
0.04

Request the reported ED50 associated with CNCCN1CCC(Cc2nc3ccccc3n2Cc2ccc(F)cc2)CC1 [Compound 513]
0.08

Would you kindly share the measured ED50 for Fc1ccc(Cn2c(CC3CCN(CCSc4ccccc4)CC3)nc3ccccc32)cc1 [Compound 129] ?
0.16

Which ED50 reading was recorded for the molecule Cc1nc2c(NCCN3CCC(Cc4nc5ccccc5n4Cc4ccc(F)cc4)CC3)ncnc2n1C [Compound 372] ?
0.04

Can you look up the measured ED50 of O=c1oc2ccccc2cc1CCN1CCC(Cc2nc3ccccc3n2Cc2cscn2)CC1 [Compound 265] for me?
0.02

State the recorded ED50 for this entry: O=c1[nH]c2ccccc2c(=O)n1CCCN1CCC(Cc2nc3cccnc3n2Cc2ccco2)CC1 [Compound 169]
0.02

# lookup: ED50 of Fc1ccc(Cn2c(CC3CCN(CCc4ccccn4)CC3)nc3cccnc32)cc1 [Compound 101]
0.02

Value lookup for ED50; key = O=c1c2ccccc2[nH]c(=S)n1CCN1CCC(Cc2nc3cccnc3n2Cc2ccc(F)cc2)CC1 [Compound 463]
0.08

Fill blank: measured ED50 of the molecule CNc1ccccc1C(=O)NCCN1CCC(Cc2nc3ccccc3n2Cc2ccc(F)cc2)CC1 [Compound 467] is ____.
0.04

May I ask what ED50 has been recorded for CCn1nnnc1SCCN1CCC(Cc2nc3ccccc3n2Cc2ccc(F)cc2)CC1 [Compound 181] ?
0.04

Which ED50 is listed for CC(C)NC(=O)CCN1CCC(Cc2nc3cccnc3n2Cc2ccc(F)cc2)CC1 [Compound 143] ?
0.04
